- Test system: Ba/F3 P210-BCR-ABL1 RUNX1-/mut (mouse)
- Experiment: drug sensitivity score (DSS) (DSS score); higher = more sensitive (stronger growth inhibition); extreme values may be limits of the assay
Label true (1) when drug sensitivity score is at or above 10; otherwise label false (0).

# Compound, Assigned Class
measured = [
    ("Oc1nc(-c2ccc(C(F)(F)F)cc2)nc2c1CSCC2", "false (0)"),
    ("CCCN(CCC)C(=O)C1=Cc2ccc(-c3ccc(C(=O)N4CCCC4)cc3)cc2N=C(N)C1", "false (0)"),
    ("COc1cccc2c1C(=O)c1c(O)c3c(c(O)c1C2=O)C[C@@](O)(C(=O)CO)C[C@@H]3O[C@H]1C[C@H](N)[C@H](O)[C@H](C)O1", "true (1)"),
    ("Cc1cc(-c2nc(-c3ccc(OC(F)(F)F)cc3)no2)nn1Cc1ccnc(N2CCN(C3CC3)CC2)c1", "false (0)"),
]

QUERY: # bool: drug sensitivity score of `CC1(COc2ccc3c(c2)ncn3-c2ccc3cccc(N4CCC(N)CC4)c3n2)COC1` >= 10
RESULT: true (1)

QUERY: Then what about the compound `CO[C@H]1C[C@@H]2CC[C@@H](C)[C@@](O)(O2)C(=O)C(=O)N2CCCC[C@H]2C(=O)O[C@H]([C@H](C)C[C@@H]2CC[C@@H](OP(C)(C)=O)[C@H](OC)C2)CC(=O)[C@H](C)/C=C(\C)[C@@H](O)[C@@H](OC)C(=O)[C@H](C)C[C@H](C)/C=C/C=C/C=C/1C` ?
RESULT: true (1)
